- measurement.notes: Compound was evaluated for rate of clearance in IPRL (Isolated Perfused Rat Liver)
- Format: ADME
reported.property: k el (s⁻¹)
Answers are plain numbers, in s⁻¹.

These solved cases illustrate the format of a correct answer.
compound: CCCS(=O)(=O)c1cc(N[C@@H](Cc2ccc(NC(=O)c3c(Cl)cncc3Cl)cc2)C(=O)O)ncn1
k el (s⁻¹): 0.00122
--
compound: CSc1ncc(C(=O)O)c(N[C@@H](Cc2ccc(NC(=O)c3c(Cl)cncc3Cl)cc2)C(=O)O)n1
k el (s⁻¹): 0.000361

Required: k el, one value per compound below.
1. O=C(Nc1ccc(C[C@H](Nc2cc(Cc3ccccc3)ncn2)C(=O)O)cc1)c1c(Cl)cncc1Cl
2. CCCS(=O)(=O)c1nccc(N[C@@H](Cc2ccc(NC(=O)c3c(Cl)cncc3Cl)cc2)C(=O)O)n1
3. CC(C)CS(=O)(=O)c1nc(N[C@@H](Cc2ccc(NC(=O)c3c(Cl)cncc3Cl)cc2)C(=O)O)cc(C(=O)O)n1
4. CCC[S+]([O-])c1cc(N[C@@H](Cc2ccc(NC(=O)c3c(Cl)cncc3Cl)cc2)C(=O)O)ncn1 (some centres undefined)
5. CCCS(=O)(=O)c1ccnc(NC(Cc2ccc(NC(=O)c3c(Cl)cncc3Cl)cc2)C(=O)O)c1 (centres undefined)
6. O=C(Nc1ccc(C[C@H](Nc2cc(Oc3ccccc3)ncn2)C(=O)O)cc1)c1c(Cl)cncc1Cl
7. CCCS(=O)(=O)c1nc(N[C@@H](Cc2ccc(NC(=O)c3c(Cl)cncc3Cl)cc2)C(=O)O)cc(OC)n1
8. CCCCCCS(=O)(=O)c1nc(N[C@@H](Cc2ccc(NC(=O)c3c(Cl)cncc3Cl)cc2)C(=O)O)cc(C(=O)O)n1

[0.00178, 0.00122, 0.00164, 0.00119, 0.00144, 0.000861, 0.00156, 0.000861]
